Provide the recorded RDW % for the entries that follow.
# testProtocol: In vivo toxicological study in rats: haematology
# Parameters: species or system rats of the Wistar strain
# assayConditions: male, 100 mg/kg oral daily 7 d
Value expressed in %; do not type the unit.

Data request: I am curious: what RDW % value has been reported for `N#Cc1c(NC(=O)c2cccc3ccccc23)sc2c1CCN(CC(=O)Nc1cccc(Br)c1)C2` ?
Data returned: 14.9

Data request: # RDW % lookup, item `N#Cc1c(NC(=O)c2cccc3ccccc23)sc2c1CCN(C(=O)Nc1ccccc1OC(F)(F)F)C2`
Data returned: 15.4

Data request: What does the record list as RDW % for `COc1ccccc1NC(=O)N1CCc2c(sc(NC(=O)c3cccc4ccccc34)c2C#N)C1` ?
Data returned: 14.6

Data request: So what's the measured RDW % for this one? `COc1ccc(C(=O)Nc2sc3c(c2C#N)CCCCC3)cc1OC`
Data returned: 14.4

###

# testProtocol: In vivo toxicological study in rats: haematology
# Set-up: species or system rats of the Wistar strain
# assayConditions: female, 30 mg/kg oral daily 7 d
assayEndpoint: LYM

Data request: Fill in the blank: the reported LYM of `COc1ccccc1NC(=O)N1CCc2c(sc(NC(=O)c3cccc4ccccc34)c2C#N)C1` is ____.
Data returned: 5.6 10^9/l

Data request: If you can, please state the reported LYM value of `N#Cc1c(NC(=O)c2cccc3ccccc23)sc2c1CCN(C(=O)Nc1ccccc1OC(F)(F)F)C2` .
Data returned: 4.9 10^9/l

Data request: # lookup: LYM of `N#Cc1c(NC(=O)c2cccc3ccccc23)sc2c1CCN(CC(=O)Nc1cccc(Br)c1)C2`
Data returned: 4.6 10^9/l

Data request: Query: LYM; subject: `COc1ccc(C(=O)Nc2sc3c(c2C#N)CCCCC3)cc1OC`
Data returned: 5.4 10^9/l

###

# testProtocol: In vivo toxicological study in rats: haematology
# Design: species or system rats of the Wistar strain
# assayConditions: male, 30 mg/kg oral daily 7 d
Assignment: determine reported LYM for the given molecules.

Data request: Which measured LYM value corresponds to COc1ccccc1NC(=O)N1CCc2c(sc(NC(=O)c3cccc4ccccc34)c2C#N)C1 [PKL-A152] ?
Data returned: 5.9 10^9/l

Data request: Entry under review: COc1ccc(C(=O)Nc2sc3c(c2C#N)CCCCC3)cc1OC [PKL-A135] . Reported LYM?
Data returned: 6.5 10^9/l

Data request: What LYM value was documented for this molecule, N#Cc1c(NC(=O)c2cccc3ccccc23)sc2c1CCN(C(=O)Nc1ccccc1OC(F)(F)F)C2 [PKL-A159] ?
Data returned: 2.8 10^9/l

Data request: So what's the measured LYM for this one? N#Cc1c(NC(=O)c2cccc3ccccc23)sc2c1CCN(CC(=O)Nc1cccc(Br)c1)C2 [PKL-B171]
Data returned: 6.3 10^9/l

###

Consider the following molecules; for each one, report its GRAN.
# testProtocol: In vivo toxicological study in rats: haematology
# Parameters: species or system rats of the Wistar strain
# assayConditions: female, 300 mg/kg oral daily 7 d

Data request: For the molecule shown here, COc1ccccc1NC(=O)N1CCc2c(sc(NC(=O)c3cccc4ccccc34)c2C#N)C1 [PKL-A152] , give the reported GRAN.
Data returned: 1.03 10^9/l

Data request: Endpoint output: GRAN of COc1ccc(C(=O)Nc2sc3c(c2C#N)CCCCC3)cc1OC [PKL-A135] . Value?
Data returned: 1.10 10^9/l

Data request: Quick one: GRAN of N#Cc1c(NC(=O)c2cccc3ccccc23)sc2c1CCN(CC(=O)Nc1cccc(Br)c1)C2 [PKL-B171] ?
Data returned: 1.23 10^9/l

Data request: Suppose we examine the molecule N#Cc1c(NC(=O)c2cccc3ccccc23)sc2c1CCN(C(=O)Nc1ccccc1OC(F)(F)F)C2 [PKL-A159] ; what GRAN value has been reported?
Data returned: 0.93 10^9/l
